target: WT B‐RAF (Homo sapiens, UniProt P15056); construct: gene BRAF; overexpressed in HEK293 cells, immunoprecipitated; test: TR-FRET kinase assay, MEK1 (K97R) substrate; type: biochemical; conditions: 1 mM ATP; 1 h pre-incubation; room temperature; time-dependent inhibition (6 h and 24 h pre-incubation also tested); read-out: Compound C IC50 (nM) / 1 h
Sequence (P15056 2-766): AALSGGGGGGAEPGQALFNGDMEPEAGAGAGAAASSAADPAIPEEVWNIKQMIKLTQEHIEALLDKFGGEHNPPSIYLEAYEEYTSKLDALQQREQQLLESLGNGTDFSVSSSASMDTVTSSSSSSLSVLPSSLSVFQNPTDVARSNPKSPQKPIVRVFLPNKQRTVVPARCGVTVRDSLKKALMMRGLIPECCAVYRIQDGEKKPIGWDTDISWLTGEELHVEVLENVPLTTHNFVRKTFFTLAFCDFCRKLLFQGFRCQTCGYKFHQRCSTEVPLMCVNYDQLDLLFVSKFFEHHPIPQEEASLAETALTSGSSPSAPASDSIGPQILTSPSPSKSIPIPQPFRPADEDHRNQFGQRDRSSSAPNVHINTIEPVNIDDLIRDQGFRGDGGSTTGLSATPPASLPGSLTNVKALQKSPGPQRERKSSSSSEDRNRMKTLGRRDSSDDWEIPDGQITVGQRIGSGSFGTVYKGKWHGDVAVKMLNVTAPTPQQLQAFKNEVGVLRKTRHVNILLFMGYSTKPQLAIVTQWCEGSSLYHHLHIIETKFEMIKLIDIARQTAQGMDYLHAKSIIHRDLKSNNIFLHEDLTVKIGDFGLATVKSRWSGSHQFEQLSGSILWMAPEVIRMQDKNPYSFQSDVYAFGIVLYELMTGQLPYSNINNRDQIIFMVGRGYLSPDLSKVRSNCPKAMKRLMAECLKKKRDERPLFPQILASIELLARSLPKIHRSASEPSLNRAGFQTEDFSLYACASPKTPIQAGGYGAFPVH
attribute measured: IC50 (nM)
Give bare numbers, in nM.

## Input Query: IC50; subject: c1cc(-c2cnn3cc(-c4ccc(OCCN5CCCCC5)cc4)cnc23)ccn1 [compound C]
## Output 24

----------
target: WT C‐RAF (Homo sapiens, UniProt P04049); construct: gene RAF1; overexpressed in HEK293 cells, immunoprecipitated; experiment: TR-FRET kinase assay, MEK1 (K97R) substrate; format: biochemical; details: 1 mM ATP; 1 h pre-incubation; room temperature; time-dependent inhibition (6 h and 24 h pre-incubation also tested); read-out: Compound C IC50 (nM) / 1 h
Sequence (P04049 whole entry): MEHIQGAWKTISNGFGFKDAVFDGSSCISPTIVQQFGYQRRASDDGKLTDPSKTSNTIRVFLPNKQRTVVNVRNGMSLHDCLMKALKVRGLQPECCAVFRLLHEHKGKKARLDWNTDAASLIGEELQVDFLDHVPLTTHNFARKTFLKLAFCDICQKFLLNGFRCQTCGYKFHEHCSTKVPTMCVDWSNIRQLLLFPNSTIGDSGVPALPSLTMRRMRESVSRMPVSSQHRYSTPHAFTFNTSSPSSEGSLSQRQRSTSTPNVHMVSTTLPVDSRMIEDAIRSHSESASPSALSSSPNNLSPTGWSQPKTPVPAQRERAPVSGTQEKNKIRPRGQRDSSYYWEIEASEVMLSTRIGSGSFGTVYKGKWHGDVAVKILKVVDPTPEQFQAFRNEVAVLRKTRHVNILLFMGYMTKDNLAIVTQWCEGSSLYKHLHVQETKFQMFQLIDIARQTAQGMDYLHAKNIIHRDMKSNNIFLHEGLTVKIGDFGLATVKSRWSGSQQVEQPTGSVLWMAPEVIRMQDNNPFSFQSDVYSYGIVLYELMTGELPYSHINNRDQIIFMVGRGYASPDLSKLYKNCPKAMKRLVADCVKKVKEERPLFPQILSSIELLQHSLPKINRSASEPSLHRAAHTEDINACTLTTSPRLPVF
attribute measured: IC50 (nM)
Give bare numbers, in nM.

## Input Request - read-out IC50 | tested on WT C‐RAF (Homo sapiens, UniProt P04049) | molecule c1cc(-c2cnn3cc(-c4ccc(OCCN5CCCCC5)cc4)cnc23)ccn1 [compound C]
## Output 2.4
